Molecular target: Neuronal acetylcholine receptor; alpha4/beta2 (Homo sapiens, UniProt P17787+P43681)
Test: Maximal response against Nicotinic acetylcholine receptor alpha4-beta2
Format: protein-complex assay
As shown below, each of these compounds has a reported Rmax value.
Number first, unit second: that is the form wanted.

{"columns": ["COMPOUND", "Rmax"],
 "data": [
  ["O=c1c(Br)ccc2n1C[C@@H]1CNC[C@H]2C1", "23%"],
  ["COc1ccc(/C=C2\\CCCN=C2c2cccnc2)c(OC)c1 [GTS-21]", "0%"],
  ["CCCC1CCCNC(c2cccnc2)C1 (configuration not stated)", "3%"]
]}

## Task Recorded Rmax for c1cncc(OC[C@@H]2CCN2)c1 with Neuronal acetylcholine receptor; alpha4/beta2 (Homo sapiens, UniProt P17787+P43681), please?
## Result 185%

## Task Then what about the compound C#Cc1cncc([C@@H]2CCCN2C)c1 [ALTINICLINE] ?
## Result 49%

## Task Then what about the compound CN(C)c1ccc(/C=C/C=C2\CCCN=C2c2cccnc2)cc1 ?
## Result 0%

## Task Then what about the compound O=c1c(I)ccc2n1C[C@@H]1CNC[C@H]2C1 ?
## Result 47%

---

Assay: Effective concentration against Nicotinic acetylcholine receptor alpha2-beta4 expressed in xenopus oocytes
Assay type: cell-based
Conditions: oocyte
METRIC: pEC50
Expect pEC50 as a plain number equal to -log10 of the molar concentration.

Consider the worked cases shown below.
{"columns": ["COMPOUND", "METRIC", "REPORTED VALUE"],
 "data": [
  ["CC(=O)OCC[N+](C)(C)C [ACETYLCHOLINE]", "pEC50", 4.08],
  ["CN1CCC[C@H]1c1cccnc1 [NICOTINE]", "pEC50", 4.68],
  ["C[N+]1(C)CCN(c2ccccc2)CC1 [DIMETHYLPHENYLPIPERAZINIUM]", "pEC50", 4.64]
]}

Query compound follows.
## Task Which value of pEC50 has been reported for O=c1cccc2n1C[C@@H]1CNC[C@H]2C1 [CYTISINICLINE] in the records?
## Result 4.41

---

Molecular target: Neuronal acetylcholine receptor subunit alpha-7 (Homo sapiens, UniProt P36544)
Sequence (P36544 whole entry): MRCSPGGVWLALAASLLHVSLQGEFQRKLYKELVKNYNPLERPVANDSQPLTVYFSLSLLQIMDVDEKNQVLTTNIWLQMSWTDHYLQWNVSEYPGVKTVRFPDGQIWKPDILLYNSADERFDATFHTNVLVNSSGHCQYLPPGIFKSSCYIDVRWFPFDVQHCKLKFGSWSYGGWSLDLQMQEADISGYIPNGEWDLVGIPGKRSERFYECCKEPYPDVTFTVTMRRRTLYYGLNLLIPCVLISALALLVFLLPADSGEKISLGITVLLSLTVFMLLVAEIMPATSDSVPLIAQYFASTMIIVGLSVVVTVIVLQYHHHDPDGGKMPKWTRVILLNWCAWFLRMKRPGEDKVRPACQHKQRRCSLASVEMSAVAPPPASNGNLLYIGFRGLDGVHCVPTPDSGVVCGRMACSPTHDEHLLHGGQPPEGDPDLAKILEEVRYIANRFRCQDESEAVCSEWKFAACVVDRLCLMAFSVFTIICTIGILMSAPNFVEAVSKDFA
Assay: Effective concentration against Nicotinic acetylcholine receptor alpha 7
METRIC: EC50

{"columns": ["COMPOUND", "SYSTEM", "EC50"],
 "data": [
  ["CN1CCC[C@H]1CCSc1ccc(O)cc1", "Neuronal acetylcholine receptor subunit alpha-7 (Homo sapiens, UniProt P36544)", "> 10 µM"]
]}

## Task Which value of EC50 has been reported for CN1C2CC[C@@H]1CC2c1ccnnc1 (stereo partly specified) in the records?
## Result 25 µM

## Task Then what about the compound C#Cc1cncc([C@@H]2CCCN2C)c1 ?
## Result > 10 µM

## Task Then what about the compound COc1cc2c(cn1)C1NCCC1CC2 (stereo unspecified) ?
## Result > 300 µM

## Task Then what about the compound CCCC1CCCNC(c2cccnc2)C1 (stereo unspecified) ?
## Result 44 µM

## Task Then what about the compound CN[C@@H](C)C/C=C/c1cncc(OC(C)C)c1 ?
## Result > 10 µM

---

Target: Neuronal acetylcholine receptor; alpha4/beta4 (Homo sapiens, UniProt P30926+P43681)
Sequence (P30926 whole entry): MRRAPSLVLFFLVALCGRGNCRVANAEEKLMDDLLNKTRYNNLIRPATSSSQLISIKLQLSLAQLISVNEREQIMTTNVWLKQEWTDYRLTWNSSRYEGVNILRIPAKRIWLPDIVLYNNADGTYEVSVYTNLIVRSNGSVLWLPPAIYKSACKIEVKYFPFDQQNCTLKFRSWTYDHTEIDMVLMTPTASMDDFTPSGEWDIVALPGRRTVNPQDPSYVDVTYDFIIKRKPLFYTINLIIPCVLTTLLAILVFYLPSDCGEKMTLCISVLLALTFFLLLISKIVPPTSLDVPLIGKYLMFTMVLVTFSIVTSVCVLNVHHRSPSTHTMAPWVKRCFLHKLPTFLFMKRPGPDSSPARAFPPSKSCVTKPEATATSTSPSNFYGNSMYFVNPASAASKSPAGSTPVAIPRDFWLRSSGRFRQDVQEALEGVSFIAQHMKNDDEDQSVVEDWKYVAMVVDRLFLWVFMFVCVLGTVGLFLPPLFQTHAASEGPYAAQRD
Sequence (P43681 whole entry): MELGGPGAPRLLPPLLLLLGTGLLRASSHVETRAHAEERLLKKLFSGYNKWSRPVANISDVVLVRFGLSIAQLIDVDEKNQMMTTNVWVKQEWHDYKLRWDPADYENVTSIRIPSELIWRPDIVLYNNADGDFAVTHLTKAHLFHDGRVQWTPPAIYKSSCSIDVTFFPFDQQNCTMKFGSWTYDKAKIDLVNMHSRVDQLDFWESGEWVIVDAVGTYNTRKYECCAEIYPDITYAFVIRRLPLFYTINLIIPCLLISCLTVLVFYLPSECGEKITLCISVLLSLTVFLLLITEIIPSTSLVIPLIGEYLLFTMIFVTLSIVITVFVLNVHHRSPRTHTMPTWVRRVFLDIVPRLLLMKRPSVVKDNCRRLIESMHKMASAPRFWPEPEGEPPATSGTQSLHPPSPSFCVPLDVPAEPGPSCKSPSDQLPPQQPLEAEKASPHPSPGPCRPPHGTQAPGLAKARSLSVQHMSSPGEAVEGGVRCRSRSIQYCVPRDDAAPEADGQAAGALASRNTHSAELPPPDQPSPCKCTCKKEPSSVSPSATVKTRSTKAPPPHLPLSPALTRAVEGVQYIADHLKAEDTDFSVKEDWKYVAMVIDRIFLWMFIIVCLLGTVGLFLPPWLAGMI
Test: Effective concentration against Nicotinic acetylcholine receptor alpha4-beta4
METRIC: EC50

Consider the worked cases shown below.
{"columns": ["COMPOUND", "REPORTED VALUE"],
 "data": [
  ["COc1ccc(/C=C2\\CCCN=C2c2cccnc2)c(OC)c1", "> 10 µM"],
  ["C#Cc1cncc([C@@H]2CCCN2C)c1", "2 µM"]
]}

## Task Which value of EC50 has been reported for CN[C@@H](C)C/C=C/c1cncc(OC(C)C)c1 in the records?
## Result > 10 µM

## Task Then what about the compound O=C(NC1CN2CCC1CC2)c1ccc(-c2ccccn2)s1 (stereo unspecified) ?
## Result > 10 µM

## Task Then what about the compound c1ccc(-c2cnc3c(c2)CC2(CN4CCC2CC4)O3)cc1 (stereo unspecified) ?
## Result > 100 µM

## Task Then what about the compound O=C(NC1CN2CCC1CC2)c1ccc(-c2ccsc2)s1 (stereo unspecified) ?
## Result > 10 µM
